Tested on: cotton (Go)
protocol details: Test Example 4: crop plant selectivity by upland field soil treatment (cotton), phytotoxicity
Type: in vivo
Set-up: scale not given here
setup conditions: dose 1.6 g ai/10 a, evaluated 21st day after application
readout kind: Phytotoxicity Go
Provide a numeric answer; units are not to be included.

// below: answered compounds
INSERT INTO assay_data (compound, readout_number) VALUES
  ('C#CC(O)c1cc(-c2ccc(C(F)(F)F)n(C)c2=O)c(F)cc1Cl (stereo not drawn)', 1),
  ('Cn1c(C(F)(F)F)ccc(-c2cc(Oc3ncccn3)c(Cl)cc2F)c1=O', 1),
  ('Cn1c(C(F)(F)F)ccc(-c2cc(OCC(F)(F)F)c(Cl)cc2F)c1=O', 0),
  ('CCc1cc2c(-c3ccc(C(F)(F)F)n(C)c3=O)c(F)cc(Cl)c2o1', 1);

(Q) Provide cotton (Go) Phytotoxicity Go reading for `C#CCN1C(=O)COc2cc(F)c(-c3ccc(C(F)(F)F)n(C)c3=O)cc21` .
(A) 2

* * *

Entries and their measured Phytotoxicity Ze follow.
Test system: corn (Ze)
protocol details: Test Example 11: crop plant selectivity by upland field foliage treatment (corn), phytotoxicity
setup conditions: upland field foliage treatment, dose 1.6 g ai/10a, 14th day after treatment
Simply state the number, no unit and no words.

These solved cases illustrate the format of a correct answer.
INSERT INTO measurements (compound, tgt, readout_kind, readout_number) VALUES
  ('CC(C)OC(=O)c1cc(-c2ccc(C(F)(F)F)n(C)c2=O)c(F)cc1Cl', 'corn (Ze)', 'Phytotoxicity Ze', 2),
  ('CCOC(=O)C(CC)Sc1cc(-c2ccc(C(F)(F)F)n(C)c2=O)c(Cl)cc1Cl (racemic)', 'corn (Ze)', 'Phytotoxicity Ze', 2),
  ('COCN1C(=O)COc2cc(F)c(-c3ccc(C(F)(F)F)n(C)c3=O)cc21', 'corn (Ze)', 'Phytotoxicity Ze', 1),
  ('CSCOc1cc(-c2ccc(C(F)(F)F)n(C)c2=O)c(F)cc1Cl', 'corn (Ze)', 'Phytotoxicity Ze', 2),
  ('C#CCOCc1cc(-c2ccc(C(F)(F)F)n(C)c2=O)c(F)cc1Cl', 'corn (Ze)', 'Phytotoxicity Ze', 2);

(Q) Consider the compound `Cn1c(C(F)(F)F)ccc(-c2cc3c(cc2F)sc(=O)n3C)c1=O` and give its recorded Phytotoxicity Ze.
(A) 2

(Q) Could you please provide reported Phytotoxicity Ze for `C#CCOc1cc(-c2ccc(C(F)(F)F)n(C)c2=O)c(Cl)cc1Cl` ? Thanks!
(A) 2

* * *

System: green foxtail (Se)
protocol details: Test Example 5: crop plant selectivity by upland field soil treatment (wheat), herbicidal effects
Type: in vivo
Parameters: scale not given here
setup conditions: dose 6.3 g ai/10a, 21st day after application
Below, each entry is listed alongside its reported Herbicidal effects Se.
Give the figure only, with no unit attached.

Solved entries (count: 2):
INSERT INTO assay_data (structure, readout_kind, readout_number) VALUES
  ('CCN1C(=O)COc2cc(F)c(-c3ccc(C(F)(F)F)n(C)c3=O)cc21', 'Herbicidal effects Se', 5),
  ('C=CCOc1cc(-c2ccc(C(F)(F)F)n(C)c2=O)c(F)cc1Cl', 'Herbicidal effects Se', 5);

Next item in the queue.
(Q) Quote green foxtail (Se) Herbicidal effects Se for entry `C#CCSc1cc(-c2ccc(C(F)(F)F)n(C)c2=O)c(F)cc1Cl` .
(A) 5
